# Assay System: p38a/PRAK (Homo sapiens (Human), UniProt Q16539)
# Sequence (Q16539 whole entry): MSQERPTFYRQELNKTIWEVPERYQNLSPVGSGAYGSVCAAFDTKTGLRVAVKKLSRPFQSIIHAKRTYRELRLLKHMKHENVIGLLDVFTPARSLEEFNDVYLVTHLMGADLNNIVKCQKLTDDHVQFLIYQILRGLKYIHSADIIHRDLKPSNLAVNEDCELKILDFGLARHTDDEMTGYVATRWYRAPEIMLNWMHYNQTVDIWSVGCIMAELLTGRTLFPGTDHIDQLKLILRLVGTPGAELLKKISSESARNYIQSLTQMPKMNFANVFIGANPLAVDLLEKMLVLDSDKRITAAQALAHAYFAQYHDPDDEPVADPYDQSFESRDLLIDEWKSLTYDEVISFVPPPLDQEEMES
# Test Description: p38a/PRAK biochemical assay: activation of PRAK by p38, FITC-HSP27 peptide phosphorylation (IMAP FP)
# Measurement Conditions: 10-point 1:3 dilution, top dose 300 μM; 60 pM active p38a, 1 nM inactive PRAK, 10 μM ATP, 2 h incubation; read-out: p38a/PRAK Enzyme pIC50 (converted)
Test Readout: IC50 (µM)

Previously resolved entries follow.
Compound	IC50 [µM]
[2H]C([2H])(Oc1cc(C)n(-c2c(C)cnc(-c3ccnc(C(C)(C)O)n3)c2F)c(=O)c1Cl)c1ncc(F)cc1F (single isomer, unassigned) [Example 57A]	0.794
Cc1c(-n2c(C)cc(OCc3ncc(F)cc3F)c(Cl)c2=O)ccnc1-n1ccc(C(C)(C)O)n1 (single isomer, unassigned) [Example 52B]	25.1

(1) Cc1cnc(-c2ccnc(C3(O)CC3)n2)cc1-n1c(C)cc(OCc2ncc(F)cc2F)c(Cl)c1=O (single isomer, unassigned) [Example 3A]
(2) Cc1ncc(-c2ccnc(C(C)(C)O)n2)cc1-n1c(C)cc(OCc2ncc(F)cc2F)c(Cl)c1=O (single isomer, unassigned) [Example 45B]
input: Consider 1 and 2 . Which of these has its IC50 at a higher number? Give the chosen item's label as your response.
output: 2
(2: 39.8 µM, 1: 3.98 µM)
